Tested on: KGN (Other Solid Carcinomas)
Assay Protocol: combination Emax (second highest fraction inhibited in the dose matrix, 72 h); higher = more inhibition; extreme values may be limits of the assay
Please go through the items and note down their combination Emax.
Answers are plain numbers.

Some compounds with recorded combination Emax:
• Cc1c2c(nn1C)CSCc1cc(n(C)n1)CSc1cc(c3ccccc3c1)OCCCc1c(C(=O)O)n(C)c3c-2c(Cl)ccc13 [AZD5991] + Cc1cc2ncnn2cc1Nc1ncc2c(n1)n(C1CCOCC1)c(=O)n2C [AZD7648] (first compound max 1 µM, 7x7, partner max 10 µM) = 0.563
• CCN(CCO)CCCOc1ccc2c(Nc3cc(CC(=O)Nc4cccc(F)c4)[nH]n3)ncnc2c1 [AZD2811] + O=C(c1cc(Cc2n[nH]c(=O)c3ccccc23)ccc1F)N1CCN(C(=O)C2CC2)CC1 [Olaparib] (first compound max 1 µM, 7x7, partner max 10 µM) = 0.629
• C[C@@H](Oc1cc(-c2cnn(C3CCNCC3)c2)cnc1N)c1c(Cl)ccc(F)c1Cl [Crizotinib] + CC1=C(C(=CC=C1)Cl)NC(=O)C2=CN=C(S2)NC3=CC(=NC(=N3)C)N4CCN(CC4)CCO [Dasatinib] (first compound max 10 µM, 7x7, partner max 2 µM) = 0.978
• N#Cc1cnc(Nc2cc(NC[C@H]3CNCCO3)c(C(F)(F)F)cn2)cn1 [SRA737] + O=c1[nH]cc(F)c(=O)[nH]1 [5-Fluorouracil] (first compound max 10 µM, 7x7, partner max 20 µM) = 0.572
• Cc1c2c(nn1C)CSCc1cc(n(C)n1)CSc1cc(c3ccccc3c1)OCCCc1c(C(=O)O)n(C)c3c-2c(Cl)ccc13 [AZD5991] + C[C@@H]1COCCN1C2=NC(=NC(=C2)C3(CC3)[S@](=N)(=O)C)C4=C5C=CNC5=NC=C4 [AZD6738] (first compound max 1 µM, 7x7, partner max 10 µM) = 0.772
• CCc1c2c(nc3ccc(O)cc13)-c1cc3c(c(=O)n1C2)COC(=O)[C@]3(O)CC [SN-38] + CN(C)CCCOc1ccc(-c2ccc3ncc4c(c3c2)n(C2CCOCC2)c(=O)n4C)cn1 [AZD0156] (first compound max 0.3 µM, 7x7, partner max 1 µM) = 0.937

Continue with the next compound.
Query :: Sample C=CCn1c(=O)c2cnc(Nc3ccc(N4CCN(C)CC4)cc3)nc2n1-c1cccc(C(C)(C)O)n1 [AZD1775] + C[C@@H]1COCCN1C2=NC(=NC(=C2)C3(CC3)[S@](=N)(=O)C)C4=C5C=CNC5=NC=C4 [AZD6738] (first compound max 1 µM, partner max 10 µM) — what was its combination Emax?
Result :: 0.922

###

Tested on: ME-180 (Cervical Carcinoma)
Assay Protocol: combination Emax (second highest fraction inhibited in the dose matrix, 72 h); higher = more inhibition; extreme values may be limits of the assay
Please go through the items and note down their combination Emax.
One number for each entry.

• COc1cccc(OCCCN)c1-c1cc(Nc2cnc(C#N)cn2)n[nH]1 [Prexasertib] + CCc1c2c(nc3ccc(O)cc13)-c1cc3c(c(=O)n1C2)COC(=O)[C@]3(O)CC [SN-38] (first compound max 1 µM, 7x7, partner max 0.3 µM) = 0.948
• CC(=O)c1c(C)c2cnc(Nc3ccc(N4CCNCC4)cn3)nc2n(C2CCCC2)c1=O [Palbociclib] + Cn1cnc2c(F)c(Nc3ccc(Br)cc3Cl)c(C(=O)NOCCO)cc21 [Selumetinib] (first compound max 10 µM, 7x7, partner max 10 µM) = 0.297

Continue with the next molecule.
Query :: Sample Cc1c2c(nn1C)CSCc1cc(n(C)n1)CSc1cc(c3ccccc3c1)OCCCc1c(C(=O)O)n(C)c3c-2c(Cl)ccc13 [AZD5991] + CC(=O)O[C@H]1C(=O)[C@@]2(C)[C@H]([C@H](OC(=O)c3ccccc3)[C@]3(O)C[C@H](OC(=O)[C@H](O)[C@@H](NC(=O)c4ccccc4)c4ccccc4)C(C)=C1C3(C)C)[C@]1(OC(C)=O)CO[C@@H]1C[C@@H]2O [Paclitaxel] (first compound max 1 µM, 7x7, partner max 3 µM) — what was its combination Emax?
Result :: 0.7
